The entries below are paired with their reported inhibition.
study.target: Mu-type opioid receptor (Homo sapiens) (UniProt P35372)
Sequence (P35372 whole entry): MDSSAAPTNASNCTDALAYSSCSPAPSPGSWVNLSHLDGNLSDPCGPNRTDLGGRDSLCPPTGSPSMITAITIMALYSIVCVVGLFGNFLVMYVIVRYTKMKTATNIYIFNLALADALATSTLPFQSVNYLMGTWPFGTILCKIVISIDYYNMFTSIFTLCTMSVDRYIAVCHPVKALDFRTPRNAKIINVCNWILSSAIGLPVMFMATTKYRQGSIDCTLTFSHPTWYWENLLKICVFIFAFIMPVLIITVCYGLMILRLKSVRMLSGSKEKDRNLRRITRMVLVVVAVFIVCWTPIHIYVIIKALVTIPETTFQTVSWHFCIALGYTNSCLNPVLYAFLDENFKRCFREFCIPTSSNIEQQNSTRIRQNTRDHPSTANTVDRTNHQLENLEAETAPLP
condition.info: Compound concentration 10 µM
Description: PDSP Primary Binding target: OPRM1 - Compounds are tested at 10 uM concentration, plate are incubated at room temperature in the dark for 90 minutes. Reaction are stopped by vacuum filtration onto 0.3% polyethyleneimine soaked filter mats using Filtermate harvester. Scintilation cocktail is then melted onto microwave-dried filters on a hot plate and the radio activity is counted in Microbia counter.

What inhibition value was documented for this compound, Cc1ccccc1C(=O)Nc1ccc(C(=O)N2CCCC(O)c3cc(Cl)ccc32)c(C)c1 (centres undefined) ? 53.2%

###

study.target: 5-hydroxytryptamine receptor 7 (Homo sapiens) (UniProt P34969)
Sequence (P34969 whole entry): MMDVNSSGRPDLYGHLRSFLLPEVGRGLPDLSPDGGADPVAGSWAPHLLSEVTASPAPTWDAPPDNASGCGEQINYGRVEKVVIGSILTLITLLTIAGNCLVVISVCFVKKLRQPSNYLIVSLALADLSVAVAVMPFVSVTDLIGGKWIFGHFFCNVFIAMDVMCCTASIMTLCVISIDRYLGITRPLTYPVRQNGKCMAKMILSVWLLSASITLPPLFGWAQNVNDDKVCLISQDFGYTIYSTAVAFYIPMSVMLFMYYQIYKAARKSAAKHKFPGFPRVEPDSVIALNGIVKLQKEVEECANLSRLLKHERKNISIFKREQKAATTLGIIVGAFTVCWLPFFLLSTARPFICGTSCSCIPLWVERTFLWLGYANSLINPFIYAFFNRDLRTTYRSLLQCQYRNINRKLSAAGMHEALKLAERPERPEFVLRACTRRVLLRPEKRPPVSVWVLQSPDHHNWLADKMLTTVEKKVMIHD
condition.info: Compound concentration 10 µM
Description: PDSP Primary Binding target: HTR7 - Compounds are tested at 10 uM concentration, plate are incubated at room temperature in the dark for 90 minutes. Reaction are stopped by vacuum filtration onto 0.3% polyethyleneimine soaked filter mats using Filtermate harvester. Scintilation cocktail is then melted onto microwave-dried filters on a hot plate and the radio activity is counted in Microbia counter.
measurement.type: inhibition (%)
Could you give me the number in %? Just the number is fine.

>>> print(df.to_string())
          molecule_smiles  assay_value
0  CNC[C@H](O)c1cccc(O)c1         75.5
1     N=C(N)SCCc1c[nH]cn1         19.2

Then this compound:
Given `CC[C@@H]1CN2C(=O)N(C)c3nc(-c4ccccc4)[nH]c3C2=N1` , state its recorded inhibition. 21.6
